Values were extracted from ChEMBL document CHEMBL1150331.

target: 5-hydroxytryptamine receptor 7 (Homo sapiens, UniProt P34969); assay: Displacement of [3H]LSD from human recombinant 5HT7 receptor expressed in CHO cell membrane
Sequence (P34969 whole entry): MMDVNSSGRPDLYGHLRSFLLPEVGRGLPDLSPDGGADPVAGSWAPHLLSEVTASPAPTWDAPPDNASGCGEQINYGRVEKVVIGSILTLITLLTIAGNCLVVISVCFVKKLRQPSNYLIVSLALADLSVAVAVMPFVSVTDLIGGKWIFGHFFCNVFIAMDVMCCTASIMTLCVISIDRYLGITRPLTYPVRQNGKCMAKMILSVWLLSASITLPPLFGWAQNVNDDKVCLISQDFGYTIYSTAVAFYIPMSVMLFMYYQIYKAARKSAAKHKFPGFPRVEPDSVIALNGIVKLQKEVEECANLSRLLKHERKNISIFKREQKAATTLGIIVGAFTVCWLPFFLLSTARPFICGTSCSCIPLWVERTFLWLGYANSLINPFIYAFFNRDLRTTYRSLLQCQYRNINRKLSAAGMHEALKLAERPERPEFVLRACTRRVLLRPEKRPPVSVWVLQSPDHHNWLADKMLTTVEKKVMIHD
experimentalReadout: pIC50
Reminder that pIC50 means the negative base-10 logarithm of the concentration expressed in mol/L.

Name the recorded pIC50 for O=S(=O)(NCCCN1CCN(Cc2ccccc2)CC1)c1ccc2ccccc2c1 .
6.32

Further, for O=S(=O)(NCCCN1CCN(c2ccccc2F)CC1)c1ccc2ccccc2c1 ?
6.85

Further, for COc1ccc(N2CCN(CCCNS(=O)(=O)c3ccc4ccccc4c3)CC2)cc1 ?
5.49

Further, for COc1ccc(S(=O)(=O)NCCCN2CCN(c3cccc(C(F)(F)F)c3)CC2)cc1 ?
7.05

Further, for COc1ccc(S(=O)(=O)NCCCN2CCN(c3ccc(C(F)(F)F)cc3)CC2)cc1 ?
6.42

Further, for O=S(=O)(NCCCN1CCN(c2ccccc2)CC1)c1ccc2ccccc2c1 ?
6.17

Further, for COc1ccc(S(=O)(=O)NC(C)CCN2CCN(c3ccc(F)cc3)CC2)cc1 (stereo not given) ?
6.43

Further, for COc1ccc(N2CCN(CCCNS(=O)(=O)c3ccc(OC)cc3)CC2)cc1 ?
5.03

Further, for COc1ccc(S(=O)(=O)NC(C)CCN2CCN(c3ccccc3OC)CC2)cc1 (stereo not given) ?
6.24

###

molecular target: 5-hydroxytryptamine receptor 1A (Homo sapiens); assay: Displacement of [3H]8-OH-DPAT from human recombinant 5HT1A receptor expressed in CHOK1 cell membrane
Sequence (P08908 whole entry): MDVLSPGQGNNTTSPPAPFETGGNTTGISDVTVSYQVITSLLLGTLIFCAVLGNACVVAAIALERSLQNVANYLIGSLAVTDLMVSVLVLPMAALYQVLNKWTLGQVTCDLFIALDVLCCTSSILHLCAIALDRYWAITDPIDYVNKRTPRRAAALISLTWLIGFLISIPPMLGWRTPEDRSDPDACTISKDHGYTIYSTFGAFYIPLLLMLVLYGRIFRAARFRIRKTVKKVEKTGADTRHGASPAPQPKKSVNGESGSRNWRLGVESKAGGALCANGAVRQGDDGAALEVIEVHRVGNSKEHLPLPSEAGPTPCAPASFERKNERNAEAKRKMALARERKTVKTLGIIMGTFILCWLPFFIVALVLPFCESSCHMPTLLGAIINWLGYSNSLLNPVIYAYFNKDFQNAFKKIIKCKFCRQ
experimentalReadout: pIC50
Reminder that pIC50 means the negative base-10 logarithm of the concentration expressed in mol/L.

Name the recorded pIC50 for COc1ccc(S(=O)(=O)NCCCN2CCN(c3ccc(F)cc3)CC2)cc1 .
7.41

Further, for O=S(=O)(NCCCN1CCN(c2cccc(C(F)(F)F)c2)CC1)c1ccc2ccccc2c1 ?
7.54

Further, for COc1ccccc1N1CCN(CCCNS(=O)(=O)c2ccc3ccccc3c2)CC1 ?
8.34

Further, for COc1ccc(S(=O)(=O)NCCCN2CCN(c3cccc(C(F)(F)F)c3)CC2)cc1 ?
7.36

Further, for O=S(=O)(NCCCN1CCN(c2ccc(Cl)c(Cl)c2)CC1)c1ccc2ccccc2c1 ?
6.67

Further, for COc1ccc(S(=O)(=O)NC(C)CCN2CCN(c3cccc(C(F)(F)F)c3)CC2)cc1 (configuration not stated) ?
7.41

Further, for COc1ccc(S(=O)(=O)NCCCN2CCN(c3ccccc3OC)CC2)cc1 ?
6.57

###

target: 5-hydroxytryptamine receptor 7 (Homo sapiens, UniProt P34969); assay: Displacement of [3H]LSD from human recombinant 5HT7 receptor expressed in CHO cell membrane
Exercise: for every item that follows, state its recorded pIC50.
Reminder that pIC50 means the negative base-10 logarithm of the concentration expressed in mol/L.

Name the recorded pIC50 for O=S(=O)(NCCCN1CCN(c2cccc(C(F)(F)F)c2)CC1)c1ccc2ccccc2c1 .
7.92

Further, for COc1ccc(S(=O)(=O)NC(C)CCN2CCN(c3ccccc3)CC2)cc1 (configuration not stated) ?
6.42

Further, for O=S(=O)(NCCCN1CCN(c2ccc(Cl)c(Cl)c2)CC1)c1ccc2ccccc2c1 ?
6.91

Further, for O=S(=O)(NCCCN1CCN(c2ccc(C(F)(F)F)cc2)CC1)c1ccc2ccccc2c1 ?
6.25

Further, for COc1cccc(N2CCN(CCCNS(=O)(=O)c3ccc4ccccc4c3)CC2)c1 ?
6.65

###

molecular target: 5-hydroxytryptamine receptor 2A (Homo sapiens); assay: Displacement of [3H]ketanserin from human recombinant 5HT2A receptor expressed in CHOK1 cell membrane
Sequence (P28223 whole entry): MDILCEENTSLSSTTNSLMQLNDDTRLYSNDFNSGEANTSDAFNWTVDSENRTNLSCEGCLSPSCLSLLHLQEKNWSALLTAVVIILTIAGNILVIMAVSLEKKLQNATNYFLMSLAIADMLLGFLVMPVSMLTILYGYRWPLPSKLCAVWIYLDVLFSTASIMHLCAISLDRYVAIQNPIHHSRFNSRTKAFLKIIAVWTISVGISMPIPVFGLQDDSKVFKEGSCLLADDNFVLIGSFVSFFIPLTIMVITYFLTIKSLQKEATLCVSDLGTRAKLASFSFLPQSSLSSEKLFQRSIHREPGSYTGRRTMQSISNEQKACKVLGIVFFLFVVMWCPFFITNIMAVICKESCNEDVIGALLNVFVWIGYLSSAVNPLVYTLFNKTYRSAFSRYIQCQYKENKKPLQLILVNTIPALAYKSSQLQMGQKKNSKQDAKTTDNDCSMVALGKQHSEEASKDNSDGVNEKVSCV
experimentalReadout: IC50 (µM)
Provide the reading as a plain figure in µM.

Name the recorded IC50 for O=S(=O)(NCCCN1CCN(c2cccc(C(F)(F)F)c2)CC1)c1ccc2ccccc2c1 .
0.095

Further, for COc1ccc(S(=O)(=O)NCCCN2CCN(c3ccccc3OC)CC2)cc1 ?
5.17

Further, for O=S(=O)(NCCCN1CCN(c2ccc(Cl)c(Cl)c2)CC1)c1ccc2ccccc2c1 ?
0.019

Further, for COc1ccc(S(=O)(=O)NCCCN2CCN(c3ccc(F)cc3)CC2)cc1 ?
0.074

Further, for COc1ccc(S(=O)(=O)NC(C)CCN2CCN(c3cccc(C(F)(F)F)c3)CC2)cc1 (configuration not stated) ?
1.82

Further, for COc1ccccc1N1CCN(CCCNS(=O)(=O)c2ccc3ccccc3c2)CC1 ?
0.085

Further, for COc1ccc(S(=O)(=O)NCCCN2CCN(c3cccc(C(F)(F)F)c3)CC2)cc1 ?
0.352

###

Exercise: for every item that follows, state its recorded log10 IC50.
biological target: 5-hydroxytryptamine receptor 2C (Homo sapiens); experiment: Displacement of [3H]mesulergine from human recombinant 5HT2C receptor expressed in CHOK1 cell membrane
Sequence (P28335 whole entry): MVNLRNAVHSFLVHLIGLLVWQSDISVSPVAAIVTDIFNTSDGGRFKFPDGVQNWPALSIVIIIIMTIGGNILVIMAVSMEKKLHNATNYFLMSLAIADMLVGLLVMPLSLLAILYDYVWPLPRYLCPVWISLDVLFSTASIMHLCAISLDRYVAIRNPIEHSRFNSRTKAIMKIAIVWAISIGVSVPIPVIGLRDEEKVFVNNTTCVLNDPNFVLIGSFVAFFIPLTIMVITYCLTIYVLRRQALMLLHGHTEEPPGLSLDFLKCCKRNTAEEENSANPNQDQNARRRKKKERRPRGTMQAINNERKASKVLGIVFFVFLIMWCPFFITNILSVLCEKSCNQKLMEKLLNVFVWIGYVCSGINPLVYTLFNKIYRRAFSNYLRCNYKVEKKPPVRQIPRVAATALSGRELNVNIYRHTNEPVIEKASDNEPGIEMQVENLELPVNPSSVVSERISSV
Lab note - IC50 converted to log10 from values in µM.

Name the recorded log10 IC50 for O=S(=O)(NCCCN1CCN(c2cccc(C(F)(F)F)c2)CC1)c1ccc2ccccc2c1 .
-1.04

Further, for COc1ccc(S(=O)(=O)NCCCN2CCN(c3ccccc3OC)CC2)cc1 ?
0.99

Further, for COc1ccc(S(=O)(=O)NCCCN2CCN(c3cccc(C(F)(F)F)c3)CC2)cc1 ?
-1.24

Further, for O=S(=O)(NCCCN1CCN(c2ccc(Cl)c(Cl)c2)CC1)c1ccc2ccccc2c1 ?
-0.67

Further, for COc1ccccc1N1CCN(CCCNS(=O)(=O)c2ccc3ccccc3c2)CC1 ?
-0.62

Further, for COc1ccc(S(=O)(=O)NCCCN2CCN(c3ccc(F)cc3)CC2)cc1 ?
0.69

Further, for COc1ccc(S(=O)(=O)NC(C)CCN2CCN(c3cccc(C(F)(F)F)c3)CC2)cc1 (configuration not stated) ?
0.13

###

molecular target: 5-hydroxytryptamine receptor 7 (Homo sapiens, UniProt P34969); test: Displacement of [3H]LSD from human recombinant 5HT7 receptor expressed in CHO cell membrane
experimentalReadout: IC50 (nM)
Provide the reading as a plain figure in nM.

Name the recorded IC50 for COc1ccc(S(=O)(=O)NCCCN2CCN(c3ccc(Cl)c(Cl)c3)CC2)cc1 .
103

Further, for O=S(=O)(NCCCN1CCN(Cc2ccccc2)CC1)c1ccccc1 ?
949

Further, for COc1ccc(S(=O)(=O)NC(C)CCN2CCN(c3cccc(C(F)(F)F)c3)CC2)cc1 (stereo not given) ?
107

Further, for COc1ccc(S(=O)(=O)NCCCN2CCN(c3cccc(OC)c3)CC2)cc1 ?
339

###

Exercise: for every item that follows, state its recorded pIC50.
biological target: 5-hydroxytryptamine receptor 7 (Homo sapiens, UniProt P34969); assay: Displacement of [3H]LSD from human recombinant 5HT7 receptor expressed in CHO cell membrane
Reminder that pIC50 means the negative base-10 logarithm of the concentration expressed in mol/L.

Name the recorded pIC50 for COc1ccc(S(=O)(=O)NCCCN2CCN(c3ccc(F)cc3)CC2)cc1 .
7.33

Further, for O=S(=O)(NCCCN1CCN(c2ccc(F)cc2)CC1)c1ccc2ccccc2c1 ?
7.28

Further, for COc1ccccc1N1CCN(CCCNS(=O)(=O)c2ccc3ccccc3c2)CC1 ?
7.70

Further, for COc1ccc(S(=O)(=O)NCCCN2CCN(c3ccccc3F)CC2)cc1 ?
6.54

###

biological target: 5-hydroxytryptamine receptor 6 (Homo sapiens, UniProt P50406); test: Displacement of [3H]LSD from human 5HT6 receptor expressed in HeLa cells
Sequence (P50406 whole entry): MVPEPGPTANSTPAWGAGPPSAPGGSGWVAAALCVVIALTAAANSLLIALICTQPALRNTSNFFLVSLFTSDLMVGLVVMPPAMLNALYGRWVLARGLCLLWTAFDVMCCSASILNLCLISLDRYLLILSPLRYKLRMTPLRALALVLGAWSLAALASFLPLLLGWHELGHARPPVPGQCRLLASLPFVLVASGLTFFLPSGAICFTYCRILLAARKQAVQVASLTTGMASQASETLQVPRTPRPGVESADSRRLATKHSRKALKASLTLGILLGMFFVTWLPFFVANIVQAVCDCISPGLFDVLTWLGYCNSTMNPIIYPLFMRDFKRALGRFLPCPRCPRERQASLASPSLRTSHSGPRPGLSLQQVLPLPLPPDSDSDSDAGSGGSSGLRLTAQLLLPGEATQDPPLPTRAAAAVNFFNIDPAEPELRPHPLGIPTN
experimentalReadout: pIC50
Reminder that pIC50 means the negative base-10 logarithm of the concentration expressed in mol/L.

Please provide the recorded pIC50 for O=S(=O)(NCCCN1CCN(c2cccc(C(F)(F)F)c2)CC1)c1ccc2ccccc2c1 , tested on 5-hydroxytryptamine receptor 6 (Homo sapiens, UniProt P50406).
5.71

Further, for COc1ccc(S(=O)(=O)NCCCN2CCN(c3cccc(C(F)(F)F)c3)CC2)cc1 ?
5.55

Further, for O=S(=O)(NCCCN1CCN(c2ccc(Cl)c(Cl)c2)CC1)c1ccc2ccccc2c1 ?
6.11

Further, for COc1ccc(S(=O)(=O)NC(C)CCN2CCN(c3cccc(C(F)(F)F)c3)CC2)cc1 (configuration not stated) ?
5.16

Further, for COc1ccccc1N1CCN(CCCNS(=O)(=O)c2ccc3ccccc3c2)CC1 ?
5.58
